The origin of these recorded values is ChEMBL document CHEMBL2321840.

- TARGET_OR_TEST_SYSTEM: C-C chemokine receptor type 8 (Homo sapiens, UniProt P51685)
- Sequence (P51685 whole entry): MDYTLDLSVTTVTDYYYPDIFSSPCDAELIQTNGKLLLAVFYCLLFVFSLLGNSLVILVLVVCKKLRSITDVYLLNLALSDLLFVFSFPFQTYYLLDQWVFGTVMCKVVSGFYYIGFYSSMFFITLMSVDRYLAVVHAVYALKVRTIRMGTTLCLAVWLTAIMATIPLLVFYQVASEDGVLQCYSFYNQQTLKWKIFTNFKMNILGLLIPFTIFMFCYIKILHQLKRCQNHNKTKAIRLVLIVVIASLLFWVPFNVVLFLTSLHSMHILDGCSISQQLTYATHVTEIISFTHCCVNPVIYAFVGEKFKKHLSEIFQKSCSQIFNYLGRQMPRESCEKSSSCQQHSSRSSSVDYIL
- PROCEDURE_TEXT: Antagonist activity at CCR8 receptor (unknown origin) by [35S]GTPgammaS binding assay
ASSAY_READOUT: IC50

Input line: Recorded IC50 of `COc1cccc2c1c(NS(=O)(=O)c1ccc(Cl)s1)nn2Cc1cccc(CNC(=O)C(C)(C)O)c1` , please.
Output line: > 10 µM

* * *

Kindly supply the reported clearance values for the records listed here.
- PROCEDURE_TEXT: in vivo
- EXPERIMENTAL_CONTEXT: beagle, dog, iv, 0.5 mg/kg
Give bare numbers, in mL/min/kg.

1) COc1cccc2c1c(NS(=O)(=O)c1ccc(Cl)s1)nn2Cc1cccc(CNC(=O)C(C)(C)N)c1	18
2) COc1cccc2c1c(NS(=O)(=O)c1ccc(Cl)s1)nn2Cc1cccc(CNC(=O)[C@@H]2COCCN2)c1	41

Each of the following entries comes with a recorded value; kindly state clearance for each.
1. COc1cccc2c1c(NS(=O)(=O)c1ccc(Cl)s1)nn2Cc1cccc(CNC(=O)C2COCCN2C)c1 (single isomer, unassigned; isomer B)
2. CN[C@H](C)C(=O)NCc1cccc(Cn2nc(NS(=O)(=O)c3ccc(Cl)s3)c3c(OC)cccc32)c1

Output line:
1: 22; 2: 17

Input line: // clearance lookup, key: `COc1cccc2c1c(NS(=O)(=O)c1ccc(Cl)s1)nn2Cc1cccc(CNC(=O)C(C)(C)O)c1`
Output line: 9

* * *

- PROCEDURE_TEXT: Equilibrium solubility of the compound in saline after 24 hrs by HPLC analysis
- Assay type: physicochemical
ASSAY_READOUT: solubility thermodynamic at 24 h (µg/mL)
Answers are plain numbers, in µg/mL.

Input line: # solubility thermodynamic at 24 h lookup, item `COc1cccc2c1c(NS(=O)(=O)c1ccc(Cl)s1)nn2Cc1cccc(CNC(=O)C(C)(C)O)c1`
Output line: 73

* * *

- PROCEDURE_TEXT: Plasma protein binding in human by equilibrium dialysis technique
- Format: ADME, cell-free
- EXPERIMENTAL_CONTEXT: read-out: PPB (converted)
Record True whenever fraction unbound is at 0.04 or higher; record False when lower.

Input line: Check this compound for fraction unbound at or above 0.04: `COc1cccc2c1c(NS(=O)(=O)c1ccc(Cl)s1)nn2Cc1cccc(CNC(=O)[C@@H]2COCCN2)c1`
Output line: False

Input line: For this compound, is measured fraction unbound 0.04 or higher? `COc1cccc2c1c(NS(=O)(=O)c1ccc(Cl)s1)nn2Cc1cccc(CNC(C)=O)c1`
Output line: False

Input line: I'd appreciate it if you could say whether `COc1cccc2c1c(NS(=O)(=O)c1ccc(Cl)s1)nn2Cc1cccc(CNC(=O)C(C)(C)O)c1` has fraction unbound at least equal to 0.04.
Output line: False

Input line: Reported fraction unbound at or above 0.04? `CN[C@H](C)C(=O)NCc1cccc(Cn2nc(NS(=O)(=O)c3ccc(Cl)s3)c3c(OC)cccc32)c1`
Output line: True

Input line: Dear colleague, could you confirm whether COc1cccc2c1c(NS(=O)(=O)c1ccc(Cl)s1)nn2Cc1cccc(CNC(=O)C2COCCN2C)c1 (single isomer, unassigned; isomer B) has fraction unbound at or above 0.04?
Output line: False

Input line: Quick check: does `COc1cccc2c1c(NS(=O)(=O)c1ccc(Cl)s1)nn2Cc1cccc(CNC(=O)[C@@H]2CCCCN2)c1` have fraction unbound greater than or equal to 0.04?
Output line: True

* * *

- PROCEDURE_TEXT: Plasma protein binding in CD rat by equilibrium dialysis technique
- Assay type: ADME, cell-free
- EXPERIMENTAL_CONTEXT: read-out: PPB
ASSAY_READOUT: fraction unbound

Input line: Please look up its fraction unbound: `COc1cccc2c1c(NS(=O)(=O)c1ccc(Cl)s1)nn2Cc1cccc(CNC(=O)C(C)(C)O)c1`
Output line: ≤ 0.01

* * *

- PROCEDURE_TEXT: in vivo
- EXPERIMENTAL_CONTEXT: CD, rat, iv, 1 mg/kg
Answer false if clearance is under 20 mL/min/kg, and true if it is 20 mL/min/kg or more.

Would you please look over these solved cases?
1) CC(=O)NCc1cccc(Cn2nc(NS(=O)(=O)c3ccc(Cl)s3)c3c(C(C)O)cccc32)c1 (stereo not drawn)	false
2) CN[C@H](C)C(=O)NCc1cccc(Cn2nc(NS(=O)(=O)c3ccc(Cl)s3)c3c(OC)cccc32)c1	false
3) COc1cccc2c1c(NS(=O)(=O)c1ccc(Cl)s1)nn2Cc1cccc(CNC(=O)C(C)(C)N)c1	false
4) CC(=O)NCc1cccc(Cn2nc(NS(=O)(=O)c3ccc(Cl)s3)c3c(O)cccc32)c1	false
5) COc1cccc2c1c(NS(=O)(=O)c1ccc(Cl)s1)nn2Cc1cccc(CNC(=O)[C@@H]2CCCCN2)c1	true
6) COc1cccc2c1c(NS(=O)(=O)c1ccc(Cl)s1)nn2Cc1cccc(CNC(=O)C2COCCN2C)c1 (single isomer, unassigned; isomer B)	true

Input line: Test whether the compound `COc1cccc2c1c(NS(=O)(=O)c1ccc(Cl)s1)nn2Cc1cccc(CNC(=O)[C@@H]2COCCN2)c1` records clearance of 20 mL/min/kg or higher.
Output line: false

Input line: Reported clearance reaches at least 20 mL/min/kg for `COc1cc(F)cc2c1c(NS(=O)(=O)c1ccc(Cl)s1)nn2Cc1cccc(CNC(=O)C(C)(C)O)c1` ?
Output line: false

* * *

- PROCEDURE_TEXT: Oral bioavailability in CD rat at 1 mg/kg
- Format: ADME, organism-based
- EXPERIMENTAL_CONTEXT: in vivo
Answer each item with its documented bioavailability.
Give bare numbers, in %.

Recorded results for 2 compounds are shown here.
1) COc1cccc2c1c(NS(=O)(=O)c1ccc(Cl)s1)nn2Cc1cccc(CNC(=O)C2COCCN2C)c1 (single isomer, unassigned; isomer B)	68
2) COc1cccc2c1c(NS(=O)(=O)c1ccc(Cl)s1)nn2Cc1cccc(CNC(=O)C(C)(C)N)c1	29

--- query ---
Input line: Which bioavailability value belongs to `COc1cccc2c1c(NS(=O)(=O)c1ccc(Cl)s1)nn2Cc1cccc(CNC(=O)[C@@H]2COCCN2)c1` ?
Output line: 32

* * *

- PROCEDURE_TEXT: Equilibrium solubility of the compound in fed-state simulated intestinal fluid at pH 6.5 after 24 hrs by HPLC analysis
- Format: physicochemical
Hi there, I'd appreciate the recorded solubility thermodynamic at 24 h for every entry that follows.
Numbers only, in µg/mL.

1. COc1cc(F)cc2c1c(NS(=O)(=O)c1ccc(Cl)s1)nn2Cc1cccc(CNC(=O)C(C)(C)O)c1	33

Now for a further molecule.
Input line: Would you mind telling me what solubility thermodynamic at 24 h value was observed for `COc1cccc2c1c(NS(=O)(=O)c1ccc(Cl)s1)nn2Cc1cccc(CNC(=O)C(C)(C)O)c1` ?
Output line: 23

* * *

- TARGET_OR_TEST_SYSTEM: C-C chemokine receptor type 5 (Homo sapiens, UniProt P51681)
- Sequence (P51681 whole entry): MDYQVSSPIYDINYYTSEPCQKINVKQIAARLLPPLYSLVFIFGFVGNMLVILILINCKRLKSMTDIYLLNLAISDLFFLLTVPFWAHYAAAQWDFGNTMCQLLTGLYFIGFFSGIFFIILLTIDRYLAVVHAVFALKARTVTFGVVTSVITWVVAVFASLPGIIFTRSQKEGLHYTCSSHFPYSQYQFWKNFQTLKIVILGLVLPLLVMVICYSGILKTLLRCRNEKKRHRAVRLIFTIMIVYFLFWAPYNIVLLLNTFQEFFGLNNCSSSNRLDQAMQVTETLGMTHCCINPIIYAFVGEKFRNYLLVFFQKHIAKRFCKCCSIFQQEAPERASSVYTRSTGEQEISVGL
- PROCEDURE_TEXT: Antagonist activity at CCR5 receptor (unknown origin) by [35S]GTPgammaS binding assay
ASSAY_READOUT: pIC50
Give bare numbers, as −log10 of the molar value.

Input line: Fill in: pIC50 of `COc1cccc2c1c(NS(=O)(=O)c1ccc(Cl)s1)nn2Cc1cccc(CNC(=O)C(C)(C)O)c1` is ___
Output line: 5.20

* * *

- PROCEDURE_TEXT: Oral bioavailability in CD rat at 1 mg/kg
- Assay type: ADME, organism-based
- EXPERIMENTAL_CONTEXT: in vivo
Record form. Attribute: bioavailability. Fill in for each entry.
Give bare numbers, in %.

Some solved entries appear below for comparison.
1. CC(=O)NCc1cccc(Cn2nc(NS(=O)(=O)c3ccc(Cl)s3)c3c(O)cccc32)c1	12
2. CC(=O)NCc1cccc(Cn2nc(NS(=O)(=O)c3ccc(Cl)s3)c3c(C(C)O)cccc32)c1 (centres undefined)	35
3. CN[C@H](C)C(=O)NCc1cccc(Cn2nc(NS(=O)(=O)c3ccc(Cl)s3)c3c(OC)cccc32)c1	19

Now consider the entry below.
Input line: May I ask what bioavailability has been recorded for `COc1cc(F)cc2c1c(NS(=O)(=O)c1ccc(Cl)s1)nn2Cc1cccc(CNC(=O)C(C)(C)O)c1` ?
Output line: 90

* * *

- TARGET_OR_TEST_SYSTEM: Solute carrier organic anion transporter family member 1B1 (Homo sapiens, UniProt Q9Y6L6)
- Sequence (Q9Y6L6 whole entry): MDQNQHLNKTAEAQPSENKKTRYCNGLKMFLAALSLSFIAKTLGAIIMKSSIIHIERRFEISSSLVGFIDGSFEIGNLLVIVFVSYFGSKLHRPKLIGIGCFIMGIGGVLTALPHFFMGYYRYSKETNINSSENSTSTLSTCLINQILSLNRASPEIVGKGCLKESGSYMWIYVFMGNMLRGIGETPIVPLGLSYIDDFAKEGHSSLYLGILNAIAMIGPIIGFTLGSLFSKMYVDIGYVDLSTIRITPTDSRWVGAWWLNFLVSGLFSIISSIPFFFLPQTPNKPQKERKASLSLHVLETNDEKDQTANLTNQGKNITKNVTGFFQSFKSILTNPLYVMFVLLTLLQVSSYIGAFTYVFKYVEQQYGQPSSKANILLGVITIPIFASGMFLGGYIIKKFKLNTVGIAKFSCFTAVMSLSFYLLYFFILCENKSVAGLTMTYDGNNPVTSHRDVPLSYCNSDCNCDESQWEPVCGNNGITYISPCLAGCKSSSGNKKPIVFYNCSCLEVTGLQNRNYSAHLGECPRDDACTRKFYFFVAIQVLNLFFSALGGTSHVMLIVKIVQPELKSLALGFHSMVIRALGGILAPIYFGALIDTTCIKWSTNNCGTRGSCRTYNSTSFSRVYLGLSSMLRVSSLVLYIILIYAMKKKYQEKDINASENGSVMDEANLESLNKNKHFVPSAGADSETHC
- PROCEDURE_TEXT: Antagonist activity at OATP1B1 (unknown origin) by [35S]GTPgammaS binding assay
ASSAY_READOUT: pIC50
Numbers only, as −log10 of the molar value.

Input line: If you can, please state the reported pIC50 value of `COc1cccc2c1c(NS(=O)(=O)c1ccc(Cl)s1)nn2Cc1cccc(CNC(=O)C(C)(C)O)c1` .
Output line: 6.40

* * *

- PROCEDURE_TEXT: Oral bioavailability in CD rat at 10 mg/kg administered as suspension
- Type: ADME, organism-based
- EXPERIMENTAL_CONTEXT: in vivo
ASSAY_READOUT: bioavailability (%)
Answers are plain numbers, in %.

Input line: I am curious: what bioavailability value has been reported for `COc1cccc2c1c(NS(=O)(=O)c1ccc(Cl)s1)nn2Cc1cccc(CNC(=O)C(C)(C)O)c1` ?
Output line: 80
